Molecular target: thromboxane receptor (TPαR) (Homo sapiens)
Construct: host or cells: HEK293
Sequence (P21731 whole entry): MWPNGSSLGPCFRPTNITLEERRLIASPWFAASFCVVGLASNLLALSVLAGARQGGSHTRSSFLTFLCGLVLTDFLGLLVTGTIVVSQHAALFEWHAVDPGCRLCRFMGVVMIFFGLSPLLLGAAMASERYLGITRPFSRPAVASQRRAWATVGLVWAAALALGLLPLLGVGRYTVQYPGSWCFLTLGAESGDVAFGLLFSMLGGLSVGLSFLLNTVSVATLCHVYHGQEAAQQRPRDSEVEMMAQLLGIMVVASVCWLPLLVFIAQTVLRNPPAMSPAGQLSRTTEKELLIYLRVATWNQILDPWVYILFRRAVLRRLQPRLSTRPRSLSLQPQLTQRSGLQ
Experiment: TPαR-mediated G11 activation at the PM, P63RG-RlucII BRET
Format: cell-based
PARAMETER MEASURED: G11 activation, agonist character in words

O=C(O)CCC/C=C\C[C@@H]1[C@@H](/C=C/[C@@H](O)COc2ccc(I)cc2)[C@H]2CC[C@@H]1O2 :: full agonists
CCCCC[C@H](O)/C=C/[C@H]1CC2CC(C2)[C@@H]1C/C=C\CCCC(=O)O :: full agonists
CCCCC[C@H](O)/C=C/[C@@H]1[C@@H](C/C=C\CCCC(=O)O)[C@H]2CO[C@@H]1C2 :: full agonists
